Measured On: T1, phosphorylated Rab10 in lysates of HEK cells overexpressing LRRK2 (Homo sapiens, UniProt P61026)
T1 construct: expressed in transfected cells; host or cells: HEK cells overexpressing LRRK2
T1 sequence (P61026 1-200): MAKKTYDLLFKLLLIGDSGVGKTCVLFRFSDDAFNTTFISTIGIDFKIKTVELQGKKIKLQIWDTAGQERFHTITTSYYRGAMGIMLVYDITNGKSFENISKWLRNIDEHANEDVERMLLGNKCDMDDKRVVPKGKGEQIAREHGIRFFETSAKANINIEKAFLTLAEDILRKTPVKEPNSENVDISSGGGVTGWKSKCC
Experimental Details: Sandwich ELISA (diagnostic), HEK cells overexpressing LRRK2
Type: binding
Assay Conditions: DMSO / LRRK2 inhibitor A RLU
Parameter Measured: Sandwich ELISA (diagnostic), Ratio
Answer with a bare number; do not write a unit.

Quick one: Sandwich ELISA (diagnostic), Ratio of Clone 81-11: anti-phosphorylated (pT73) Rab10 rabbit monoclonal antibody; VH SEQ ID NO:21, VL SEQ ID NO:25 (antibody, V domains shown) VH: METGLRWLLLVAVLKGVQCQSVEESGGRLVTPGTPLTLTCTVSGFSLSSYAMSWVRQAPGKGLEYIGLFNDVGIAYYANWAKGRFTFSKTSTTVDLKITSPTTEDTATYFCARVGGTTRVYGMDLWGPGTLVTVSS VL: MDTRAPTQLLGLLLLWLPGATFAAVLTQTPSPVSAAVGGTVSISCQSSKSVRHNNYLSWYQQKPGQRPKLLIYGASTLASGVPSRFSGSGSGTEFTLTISDVQCDDAATYYCAGGYSGGGDDAFGGGTEVVVE ?
33.74

Quick one: Sandwich ELISA (diagnostic), Ratio of Clone 247-8: anti-phosphorylated (pT73) Rab10 rabbit monoclonal antibody; VH SEQ ID NO:47, VL SEQ ID NO:51 (antibody, V domains shown) VH: METGLRWLLLVAVLKGVQCQSVEESGGRLVTPGTPLTLTCTVSGFSLSSYAMGWVRQAPGKGLEYIGIISRSGITYYATWAKGRFTISKASTTVDLRIASPTTEDTATFFCVRDYDSSGWSGFNIWGPGTLVTVSL VL: MDTRAPTQLLGLLLLWLPGAICDPVMTQTPSSTSAAVGGTVTINCQSSQSVYGNNYLSWFQQKPGQPPKLLIYKASTLASGVPSRFKGSGSGTQFTLTISGVQCDDAATYYCAGAYSDNRVFGGGTEVVVK ?
7.20
